Value source: patent US20230037815A1

target: cynomolgus CD19 (cynomolgus); experiment: Octet HTX (ForteBio), IgG on AHC sensor, 1:1 fit
Readout kind: koff

Recorded koff, per entry:
Binder	Reported
CNG-CD19-105 (antibody, V domains shown) VH: QVQLVQSGAEVKKPGASVKVSCKASGYEFTDYIMHWVRQAPGQGLEWMGYINPYNDGSKYTEKFEGRVTMTSDTSISTAYMELSRLRSDDTAVYYCARGTYYYGPELFDYWGQGTTVTVSS VL: DIVMTQTPLSLSVTPGQPASISCKSSQRLETSTGTTYLNWYLQKPGQSPQLLIYRVSRRFSGVPDRFSGSGSGTDFTLKISRVEAEDVGVYYCLQLLEDPPTFGQGTKLEIK	0.000679 s⁻¹
CNG-CD19-707 (antibody, V domains shown) VH: QVQLQESGPGLVKPSQTLSLTCTVSGGSISTSTMGVGWIRQHPGKGLEWIGFIWWDDDKRYNPNLKSRVTMSVDTSKNQFSLKLSSVTAADTAVYYCARMELWSYYFDPWGQGTLVTVSS VL: EIVLTQSPATLSLSPGERATLSCSASSSVGYMHWYQQKPGQAPRLLIYDTSKLASGIPARFSGSGSGTDFTLTISSLEPEDFAVYYCFQGSVYPFTFGQGTKLEIK	0.000207 s⁻¹

Consider now this further binder.
Assign koff to the following record: CNG-CD19-109 (antibody, V domains shown) VH: QVQLVQSGAEVKKPGASVKVSCKASGYDFTDYIVHWVRQAPGQGLEWMGYINPYNDGSLYTEKFQGRVTMTSDTSISTAYMELSRLRSDDTAVYYCARGTYYYGPQLFDYWGQGTTVTVSS VL: DIVMTQTPLSLSVTPGQPASISCKSSQQLETSTGTTYLNWYLQKPGQSPQLLIYRASKRFSGVPDRFSGSGSGTDFTLKISRVEAEDVGVYYCLQLLEDPYSFGQGTKLEIK 0.00131 s⁻¹
